# credit: patent US10092537B2

target.or.test.system: UniProtKB P05121
Sequence (P05121 24-402): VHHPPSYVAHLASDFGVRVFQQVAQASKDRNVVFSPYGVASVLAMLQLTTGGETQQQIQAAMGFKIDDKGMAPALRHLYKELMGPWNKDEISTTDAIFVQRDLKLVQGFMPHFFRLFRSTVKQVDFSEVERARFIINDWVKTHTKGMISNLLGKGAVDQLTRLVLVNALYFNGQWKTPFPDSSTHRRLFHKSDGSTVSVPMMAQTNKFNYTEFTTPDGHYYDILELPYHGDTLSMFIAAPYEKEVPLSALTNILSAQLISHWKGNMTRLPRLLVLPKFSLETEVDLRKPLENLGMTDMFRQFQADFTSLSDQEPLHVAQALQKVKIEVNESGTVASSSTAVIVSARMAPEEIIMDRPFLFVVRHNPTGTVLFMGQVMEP
assay.name: Measurement of PAI-1 inhibitory activity of compound group 3 (t-PA, S-2288 chromogenic substrate; Table 4)
test.context: compound concentration 20 μM
Mark false (0) for PAI-1 activity % values under 60%, and true (1) for everything at or above.

Sample answers from the record:
O=C(Nc1ccc(Cl)cc1C(=O)[O-])c1cccc(-c2ccc3ncccc3c2)c1.[Na+] [Example 65]; true (1)
O=C(COc1ccc(-c2ccccc2)cc1)Nc1ccc(-c2ccoc2)cc1C(=O)O [Example 46]; true (1)

Query :: Evaluate CC(C(=O)Nc1ccc(Cl)cc1C(=O)O)(c1ccccc1)c1ccccc1 [Example 39] : PAI-1 activity % at minimum 60%?
Result :: true (1)

Query :: Evaluate O=C(Nc1ccc(Cl)cc1C(=O)[O-])c1cccc(-c2cncc3ccccc23)c1.[Na+] [Example 64] : PAI-1 activity % at minimum 60%?
Result :: true (1)

Query :: Evaluate O=C(COc1cccc(-c2ccccc2)c1)Nc1ccc(-c2ccccc2)cc1C(=O)O [Example 45] : PAI-1 activity % at minimum 60%?
Result :: false (0)

Query :: Evaluate O=C([O-])c1cc(Cl)ccc1NC(=O)C1CCCN(C(=O)c2cccc(-c3ccoc3)c2)C1.[Na+] (centres unmarked) [Example 11] : PAI-1 activity % at minimum 60%?
Result :: true (1)
